Taken from patent US20120003183A1.

# Experimental details: Water-solubility test
# Format: physicochemical
# Settings: water, 25° C. (room temperature)
Reported endpoint: Water Solubility @ 25° C. (mg/mL as acid)

O=C(O)c1cc(C2CC2)ccc1Nc1cnc(-c2ccccc2C(F)(F)F)nc1 [Example 2] | 0.139

a = Cc1ccc(Nc2ccc(-c3cccc(F)c3F)nc2)c(C(=O)O)c1 [Example 3]
b = O=C(O)c1cc(C2CC2)ccc1Nc1cnc(-c2c(F)cccc2F)nc1 [Example 1]
c = Cc1ccc(Nc2ccc(-c3cccc(F)c3F)nc2)c(C(=O)O)c1 [Example C3, reference compound]
d = O=C(O)c1cc(C2CC2)ccc1Nc1cnc(-c2ccccc2C(F)(F)F)nc1 [Example C2, reference compound]
e = O=C(O)c1cc(C2CC2)ccc1Nc1cnc(-c2c(F)cccc2F)nc1 [Example C1, reference compound]
Query: Task for the reader: rank each entry by its Water Solubility @ 25° C. (mg/mL as acid), from the minimum upward. Note for the reader: the ranking is given by listing the labels in the order requested.
Reply: d, c, e, a, b
(d: 0.003 mg/mL as acid, c: 0.007 mg/mL as acid, e: 0.030 mg/mL as acid, a: 0.540 mg/mL as acid, b: 1.780 mg/mL as acid)
